Source listed as PubChem BioAssay (NCI).

Tested on: COLO 205 colon
Assay: NCI-60 one-dose screen, 48 h (100 = growth as untreated, 0 = no growth, -100 = all killed)
Settings: 10 µM unless noted
Description: Cells are grown in 96 well plates and exposed to the test compound for 48 hours. Compounds are tested at a single concentration, which is 10^-5 M for most compounds. The reported endpoint is percent growth (GI% or GIPRCNT), where numbers from 0 - 100% represent growth inhibition, and numbers from -100% - 0 represent cell death. For example, a value of 40 represents 60% growth inhibition. A value of 0 means no net growth occurred over the course of the experiment. […]
The panel holds about 83,000 compounds, 20% with a hit somewhere; the sample as a whole holds those more often.
observed-property: growth (%)
The reply should be a number in %, with the unit left off.

Consider the worked cases shown below.
| molecule | unit-annotation | growth |
| --- | --- | --- |
| Cc1nc(-c2ccccc2O)ccc1C(=O)N=Nc1c(O)[nH]c2ccc(Br)cc12 | % | 105 |
| Cc1cc(C)n(C(=O)c2sc(=S)n(-c3ccccc3)c2N=Nc2c(N)n[nH]c2N)n1 | % | 109 |
| Cc1cc2nc(C(Cl)Cl)nc(-c3cccs3)n2n1 | % | -44.3 |
| COc1ccc(S(=O)(=O)NCCCNc2nccc(-c3cn(C(C)(C)C)nc3-c3ccc(Cl)c(OC)c3)n2)cc1 | % | 105 |
| COC(=O)c1ccc(NC2=C/C(=N/S(=O)(=O)c3ccc(C(=O)O)cc3)c3ccccc3C2=O)cc1 | % | 115 |

Input line: Data request, read-out growth, for CC1(C)CC[C@]2(C(=O)N3CCOCC3)CC[C@]3(C)C(=CC[C@@H]4[C@@]5(C)C/C(=C/c6ccco6)C(=O)C(C)(C)[C@@H]5CC[C@]43C)[C@@H]2C1
Output line: 108

Input line: Data request, read-out growth, for CCN(CC)c1ccc2c(c1)Oc1nc(N)c(C#N)c(N)c1C2Sc1ccc(F)cc1 (centres undefined)
Output line: -58.5

Input line: Data request, read-out growth, for CC(=O)C1=C(C)NC(NN)=NC1c1cccc(Cl)c1 (centres undefined)
Output line: 114

Input line: Data request, read-out growth, for O=S(=O)(NCCCNc1nccc(-c2[nH]c(-c3ccccc3)nc2-c2ccc(Cl)c(O)c2)n1)c1ccc(Br)cc1
Output line: 81.3

----------
Form field: growth (one value per entry).
Tested on: MCF7 breast
Assay: NCI-60 one-dose screen, 48 h (100 = growth as untreated, 0 = no growth, -100 = all killed)
Details: 10 µM unless noted
About 83,000 compounds went through this panel and 20% of them were active in at least one assay; those are over-represented in the sample as a whole. The source made the active and inactive calls. Rule for the calls: active = growth percent below 10; inactive = the rest.

Consider the worked cases shown below.
| compound | growth |
| --- | --- |
| O=C1[C@H]2Cc3c([nH]c4ccccc34)[C@@H](c3ccc(Br)cc3)N2C(=O)CN1C1CCN(CC2CCCCC2)CC1 | -99.1% (active) |
| COc1cc2nc(Cl)nc(Nc3cccc(C4=Nc5c(N)nc(N)nc5NC(c5ccc(Br)cc5)C4)c3)c2cc1OC (centres undefined) | 39.3% (inactive) |
| COc1ccc(/C=C/C(=O)c2cccc(NC(=O)CSc3nc4ccccc4c(=O)n3-c3ccccc3)c2)cc1OC | 69.2% (inactive) |

Now, please, on to the next compound.
Input line: Data request, read-out growth, for O=C(CN1CCN(c2cc(=O)[nH]c3ccc(F)cc23)CC1)Nc1ccc(Cl)cc1
Output line: 58.8% (inactive)
